PROCEDURE_TEXT: Cell counts and viability of LNCaP cells after culture with iron chelator
Type: cell-based
ASSAY_CONTEXT: human, LNCaP cells, Desferal 2.0 ug/ml
Experimental: Comment: Table 2 is data from one of three similar experiments in which cells were cultured for 72 hours following the methods described in the proposal (i.e., cells in 6-well plates for PSA studies and cells in 96-well plates for thymidine incorporation, both at the same cell concentration). […] For viable cells, the per cell production of PSA rose 33.6% (column 8: PSA value of 1.5×10E7 molecules per cell divided by control value of 1.13×10E7). […]
REPORTED_METRIC: viability at 72 h, 2 ug/ml (%)
Give the value in % but do not write % after it.

-- ask Which measured viability at 72 h, 2 ug/ml value corresponds to CC(=O)N(O)CCCCCNC(=O)CCC(=O)N(O)CCCCCNC(=O)CCC(=O)N(O)CCCCCN ?
-- reply 98.3
